Assay: Drug level in ICR mouse plasma at 10 mg/kg, po measured after 1 hr by LC/MS/MS analysis
Type: ADME, organism-based

# CHEMICAL STRING, concentration at 1 h
measured = [
    ("O=C(Nc1cncc(OCC2CCN(Cc3ccccc3)CC2)c1)c1ccnc(NC(=O)C2CC2)c1", "112 ng/g"),
    ("O=C(Nc1cncc(OCC2CCN(Cc3ccc(F)cc3)CC2)c1)c1ccnc(NC(=O)C2CC2)c1", "405 ng/g"),
]

* * *

Below is a list of entries, each paired with its recorded IC50 value.
Molecular target: Acetylcholinesterase (Homo sapiens)
Sequence (P22303 whole entry): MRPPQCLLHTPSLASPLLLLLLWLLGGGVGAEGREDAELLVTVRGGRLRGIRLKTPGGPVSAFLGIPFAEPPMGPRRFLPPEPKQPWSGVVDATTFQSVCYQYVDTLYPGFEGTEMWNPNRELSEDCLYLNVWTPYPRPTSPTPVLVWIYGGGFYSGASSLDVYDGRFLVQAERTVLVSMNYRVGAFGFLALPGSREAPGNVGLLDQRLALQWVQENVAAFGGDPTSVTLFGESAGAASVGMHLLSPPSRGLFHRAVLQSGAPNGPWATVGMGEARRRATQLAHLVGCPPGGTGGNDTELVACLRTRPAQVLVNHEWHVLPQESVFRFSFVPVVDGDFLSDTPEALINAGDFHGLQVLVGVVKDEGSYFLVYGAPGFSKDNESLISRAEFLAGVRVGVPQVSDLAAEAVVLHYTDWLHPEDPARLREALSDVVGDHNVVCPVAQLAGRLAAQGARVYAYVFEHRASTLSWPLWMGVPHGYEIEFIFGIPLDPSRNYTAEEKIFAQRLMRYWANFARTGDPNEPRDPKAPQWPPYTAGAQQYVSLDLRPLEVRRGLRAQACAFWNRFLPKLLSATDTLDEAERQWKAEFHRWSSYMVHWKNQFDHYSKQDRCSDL
Assay: Inhibition of human recombinant AChE preincubated for 1 min in presence of DNTB followed by addition of acetylthiocholine iodide substrate and measured after 20 mins by Ellman's method
PROPERTY LABEL: IC50 (nM)

# CHEMICAL STRING, PROPERTY LABEL, UNITS, COMPARATIVE SIGN, REPORTED MEASUREMENT
rows = [
    ("O=C(Nc1cncc(OCC2CCN(Cc3ccccc3)CC2)c1)c1ccnc2[nH]ccc12", "IC50", "nM", "=", 3.9),
    ("O=C(NCC1CCN(Cc2ccc(F)cc2)CC1)c1cncc(NC(=O)c2ccnc(NC(=O)C3CC3)c2)c1", "IC50", "nM", "=", 3030),
    ("O=C(CC1CCN(Cc2ccc(F)cc2)CC1)Nc1n[nH]c2cc(-c3cccnc3)ccc12", "IC50", "nM", "=", 518),
    ("O=C(Nc1cncc(OCC2CCN(Cc3ccccc3)CC2)c1)c1ccnc(NC(=O)C2CC2)c1", "IC50", "nM", "=", 2.6),
    ("O=C(Nc1cncc(OC2CCN(Cc3ccccc3)CC2)c1)c1ccnc(NC(=O)C2CC2)c1", "IC50", "nM", ">", 10000),
    ("O=C(CC1CCN(Cc2ccccc2F)CC1)Nc1n[nH]c2cc(-c3cccnc3)ccc12", "IC50", "nM", "=", 691),
    ("O=C(Nc1cccc(OCC2CCN(Cc3ccccc3)CC2)c1)c1ccnc(NC(=O)C2CC2)c1", "IC50", "nM", "=", 1390),
    ("O=C(Nc1cncc(OCC2CCN(Cc3ccccc3F)CC2)c1)c1ccnc(NC(=O)C2CC2)c1", "IC50", "nM", "=", 4.7),
    ("O=C(Nc1cncc(C(=O)NC2CCN(Cc3cccc(Cl)c3)CC2)c1)c1ccnc(NC(=O)C2CC2)c1", "IC50", "nM", "=", 2500),
]

* * *

Assay: Half life in Sprague-Dawley rat at 1 mg/kg, iv measured up to 24 hrs by LC-MS/MS analysis
Assay type: ADME, organism-based
Settings: in vivo
PROPERTY LABEL: half-life (h)

# CHEMICAL STRING, REPORTED MEASUREMENT
measured = [
    ("O=C(Nc1cncc(OCC2CCN(Cc3ccc(F)cc3)CC2)c1)c1ccnc(NC(=O)C2CC2)c1", 5.2),
    ("O=C(Nc1cncc(OCC2CCN(Cc3ccccc3)CC2)c1)c1ccnc(NC(=O)C2CC2)c1", 21.4),
]

* * *

Assay: Half life in Sprague-Dawley rat at 10 mg/kg, po measured up to 24 hrs by LC-MS/MS analysis
Format: ADME, organism-based
Details: in vivo
Recorded half-life, one value per entry.

# CHEMICAL STRING, UNITS, half-life
rows = [
    ("O=C(Nc1cncc(OCC2CCN(Cc3ccc(F)cc3)CC2)c1)c1ccnc(NC(=O)C2CC2)c1", "h", 7.6),
    ("O=C(Nc1cncc(OCC2CCN(Cc3ccccc3)CC2)c1)c1ccnc(NC(=O)C2CC2)c1", "h", 6.3),
]

Where do the numbers come from? From ChEMBL document CHEMBL4831493.
